Reference for the values: patent US6683103B2

target: human ETA receptors (Homo sapiens, UniProt P25101); construct: endogenous in cells; host or cells: TE 671 cells (ATCC HTB 139); assay: Binding Test #1: inhibition of 125I-ET-1 binding to ETA receptors (TE 671 cell membranes); details: Table 3
Sequence (P25101 21-427): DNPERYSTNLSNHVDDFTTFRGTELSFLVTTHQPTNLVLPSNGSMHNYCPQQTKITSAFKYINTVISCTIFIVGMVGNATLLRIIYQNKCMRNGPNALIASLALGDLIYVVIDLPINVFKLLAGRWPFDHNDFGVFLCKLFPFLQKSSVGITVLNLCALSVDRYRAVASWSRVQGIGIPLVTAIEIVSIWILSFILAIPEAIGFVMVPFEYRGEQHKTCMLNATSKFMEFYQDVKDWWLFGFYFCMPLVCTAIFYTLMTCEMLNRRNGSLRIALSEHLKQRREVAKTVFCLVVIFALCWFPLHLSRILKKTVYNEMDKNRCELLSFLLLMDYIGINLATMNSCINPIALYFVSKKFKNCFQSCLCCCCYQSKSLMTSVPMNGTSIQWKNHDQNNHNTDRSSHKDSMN
observable: ETA/ETB selectivity

Exercise: Given the entry CC(=O)c1cc(C)cc(C)c1NC(=O)c1sccc1S(=O)(=O)Nc1onc(C)c1Cl , report its measured ETA/ETB selectivity.
Solution: 34000^∥

Exercise: Given the entry Cc1cc(C)c(NC(=O)c2sccc2S(=O)(=O)Nc2onc(C)c2Cl)c(C(=O)C2CCCCC2)c1 , report its measured ETA/ETB selectivity.
Solution: 1300^∥

Exercise: Given the entry Cc1cc(C)c(NC(=O)c2sccc2S(=O)(=O)Nc2onc(C)c2Cl)c(C(=O)c2ccccc2)c1 , report its measured ETA/ETB selectivity.
Solution: 6000^∥

Exercise: Given the entry CCC(=O)c1cc(C)cc(C)c1NC(=O)c1sccc1S(=O)(=O)Nc1onc(C)c1Cl , report its measured ETA/ETB selectivity.
Solution: 21000^∥

Exercise: Given the entry Cc1cc(C)c(NC(=O)c2sccc2S(=O)(=O)Nc2onc(C)c2Cl)c(C(=O)C2CC2)c1 , report its measured ETA/ETB selectivity.
Solution: 45000^∥

Exercise: Given the entry Cc1cc(C)c(NC(=O)c2sccc2S(=O)(=O)Nc2onc(C)c2Cl)c(C(=O)C(C)C)c1 , report its measured ETA/ETB selectivity.
Solution: 14000^∥

Exercise: Given the entry CC(=O)c1cc(C)cc(C)c1NC(=O)c1sc(C)cc1S(=O)(=O)Nc1onc(C)c1Cl , report its measured ETA/ETB selectivity.
Solution: 9000^∥
